B1: library; numbered along this chain (parent)
chain: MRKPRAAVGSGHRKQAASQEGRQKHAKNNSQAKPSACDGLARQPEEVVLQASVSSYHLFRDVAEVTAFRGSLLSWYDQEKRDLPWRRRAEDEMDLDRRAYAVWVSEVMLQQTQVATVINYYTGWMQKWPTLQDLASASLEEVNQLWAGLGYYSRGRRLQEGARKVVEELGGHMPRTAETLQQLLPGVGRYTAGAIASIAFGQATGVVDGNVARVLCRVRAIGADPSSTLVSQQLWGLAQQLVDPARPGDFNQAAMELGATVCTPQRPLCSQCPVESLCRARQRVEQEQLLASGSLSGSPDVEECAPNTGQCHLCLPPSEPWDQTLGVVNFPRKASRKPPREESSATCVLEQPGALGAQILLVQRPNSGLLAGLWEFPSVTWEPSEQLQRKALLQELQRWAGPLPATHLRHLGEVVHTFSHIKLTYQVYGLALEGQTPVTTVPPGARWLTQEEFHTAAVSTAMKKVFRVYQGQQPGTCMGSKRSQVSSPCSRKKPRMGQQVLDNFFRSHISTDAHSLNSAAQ

variants of: B1; assay: 8OG:A repair function score (normalized; synonymous = 0, nonsense = -1) (normalized log-likelihood score); higher = more repair activity (WT-like); details: with 8OG:A DNA repair reporter (GFP) in HEK-293 MUTYH KO cells;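 note: cells sorted at 72 h after reporter transfection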
// bucketize 8OG:A repair function score: b0: < -0.2; b1: ≥ -0.2 and < -0.003; b2: ≥ -0.003

>>> group("A519C")
"b1"
>>> group("G429H")
"b0"
>>> group("I195A")
"b0"
>>> group("T449F")
"b0"
>>> group("E413D")
"b1"
>>> group("Q498C")
"b1"

stdin: Form field 'band' for R336Y
stdout: b1

stdin: Category lookup for the variant G309Y
stdout: b1

stdin: Which band does K3N fall in?
stdout: b2

stdin: Could you place R491T in its proper category? Many thanks.
stdout: b2

stdin: Class? Entry: M93E
stdout: b2

stdin: Band for A135L ?
stdout: b0

Numbers sourced from the supplement of paper PMC11908140.
